TARGET_OF_ASSAY: Cannabinoid receptor 1 (Rattus norvegicus, UniProt P20272)
Sequence (P20272 whole entry): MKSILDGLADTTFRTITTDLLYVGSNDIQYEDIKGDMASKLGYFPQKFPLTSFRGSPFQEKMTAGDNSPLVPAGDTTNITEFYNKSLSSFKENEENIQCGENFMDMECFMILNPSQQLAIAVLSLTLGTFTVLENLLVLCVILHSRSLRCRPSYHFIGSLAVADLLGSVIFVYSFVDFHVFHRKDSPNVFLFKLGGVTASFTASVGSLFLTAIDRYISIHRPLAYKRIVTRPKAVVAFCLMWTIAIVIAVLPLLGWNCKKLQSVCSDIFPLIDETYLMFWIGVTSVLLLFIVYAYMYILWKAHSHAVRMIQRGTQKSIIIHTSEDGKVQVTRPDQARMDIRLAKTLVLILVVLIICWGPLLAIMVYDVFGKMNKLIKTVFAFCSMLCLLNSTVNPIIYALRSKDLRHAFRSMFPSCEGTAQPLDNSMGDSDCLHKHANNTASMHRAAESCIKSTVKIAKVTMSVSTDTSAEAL
ASSAY_METHOD_TEXT: Antagonist activity at rat cannabinoid CB1 receptor in Wistar rat cerebellar membranes by [35S]GTPgammaS binding assay

ENTRY_SMILES | EC50 (µM)
O=C(c1cnc(Nc2cccc(C(F)(F)F)c2)c2ccccc12)N1CCOCC1 | 9.99

---

TARGET_OF_ASSAY: Cannabinoid receptor 2 (Homo sapiens)
Sequence (P34972 whole entry): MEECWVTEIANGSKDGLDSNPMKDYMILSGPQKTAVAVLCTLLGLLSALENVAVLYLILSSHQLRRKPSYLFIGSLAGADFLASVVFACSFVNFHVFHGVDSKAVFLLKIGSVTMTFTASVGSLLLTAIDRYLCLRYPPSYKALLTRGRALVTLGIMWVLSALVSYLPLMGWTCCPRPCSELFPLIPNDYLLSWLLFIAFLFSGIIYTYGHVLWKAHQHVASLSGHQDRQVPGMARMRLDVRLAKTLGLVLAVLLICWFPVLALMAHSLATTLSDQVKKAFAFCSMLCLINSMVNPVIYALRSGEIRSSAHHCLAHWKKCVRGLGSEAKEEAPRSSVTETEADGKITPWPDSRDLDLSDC
ASSAY_METHOD_TEXT: Agonist activity at human recombinant cannabinoid CB2 receptor expressed in CHO cells by [35S]GTPgammaS binding assay
READOUT_LABEL: EC50 (nM)

MOLECULE | TARGET_OF_ASSAY | ASSAY_VALUE
Brc1cccc(Nc2ccc3ccccc3n2)c1 | Cannabinoid receptor 2 (Homo sapiens) | 1990
COc1ccc(Nc2ccc3ccccc3n2)cc1 [2-(4''-Methoxyanilino)Quinoline] | Cannabinoid receptor 2 (Homo sapiens) | 1990
COc1cccc(Nc2ccc3ccccc3n2)c1 | Cannabinoid receptor 2 (Homo sapiens) | 2510
O=C(NCC1CCCCC1)c1cnc(Nc2cccc(C(F)(F)F)c2)c2ccccc12 | Cannabinoid receptor 2 (Homo sapiens) | 1580
FC(F)(F)c1cccc(Nc2ncnc3ccccc23)c1 | Cannabinoid receptor 2 (Homo sapiens) | 2510
O=C(NC1CCCCC1)c1cnc(Nc2cccc(C(F)(F)F)c2)c2ccccc12 | Cannabinoid receptor 2 (Homo sapiens) | 1990
Clc1ccc(Nc2ccc3ccccc3n2)cc1 [N-(4-chlorophenyl)quinolin-2-amine] | Cannabinoid receptor 2 (Homo sapiens) | 1990
